Below, each of the binders is paired with its reported EC50 value.
- TESTED_SYSTEM: LHRH receptor (LHRH binding sites) on EFO-27 human ovarian cancer cells (human)
- ASSAY_OVERVIEW: competition with [125I-Tyr8]BRU-2477 for binding to EFO-27 cells
Non-standard residues stand in square brackets, D forms with d. Primed or numbered codes have the meaning given here. DO3A10CM(3) = metal chelator group attached at the N-terminus (X in table rows); d2Nal = N[C@H](Cc1ccc2ccccc2c1)C(=O)O; d3Pal = N[C@H](Cc1cccnc1)C(=O)O; dCfe4 = not defined here

Check out these entries, answers already filled in.
BINDER	RESULT
XHWSHXWXPX (as printed: DO3A10CM-Sar-His-Trp-Ser-His-Darg-Trp-Dip-Pro-azaGly-NH2) [BRU-2721]	4550 nM
{DO3A10CM(3)}-G[d2Nal][dCfe4][d3Pal]SH[dR]WYP[dA]-NH2 (reading uncertain; also: printed as DO3A10CM-Gly-Dnal2-Dcfe4-Dpal3-Ser-His-Darg-Trp-Tyr-Pro-Dala-NH2) [BRU-2644]	2910 nM

Input: Can you share its EC50? I mean this binder: XHWSHXWXPX (as printed: DO3A10CM-Dafe4-His-Trp-Ser-His-Darg-Trp-Bpa4-Pro-azaGly-NH2) [BRU-2810]
Output: 980 nM
